# assay_details: Partition coefficient, log P of the compound
# Assay type: physicochemical
# conditions: octanol/water
readout_type: logP
Give only the figure.

- CC(=O)N1N=C(c2cc(F)ccc2F)C[C@H]1c1cccc(O)c1: 3.1

Please look at this compound and report its logP: `CN(C)C(=O)N1N=C(c2cc(F)ccc2F)C[C@@]1(CCCN)c1ccccc1` 1.2

---

# assay_details: Aqueous solubility at pH 10.3
# Type: physicochemical
# conditions: aqueous medium
readout_type: solubility (µg/mL)
Lab book: enter the figure in µg/mL, no units written.

Please look at this compound and report its solubility: `CN(C)C(=O)N1N=C(c2cc(F)ccc2F)C[C@@]1(CCCN)c1ccccc1` 1700
